# test_target: CD8 (cell surface CD8 on HPB-ALL cells) (UniProt P01732 22-235; A6NJW9 19-210)
# Sequence (P01732 22-235, chain 1 of 2): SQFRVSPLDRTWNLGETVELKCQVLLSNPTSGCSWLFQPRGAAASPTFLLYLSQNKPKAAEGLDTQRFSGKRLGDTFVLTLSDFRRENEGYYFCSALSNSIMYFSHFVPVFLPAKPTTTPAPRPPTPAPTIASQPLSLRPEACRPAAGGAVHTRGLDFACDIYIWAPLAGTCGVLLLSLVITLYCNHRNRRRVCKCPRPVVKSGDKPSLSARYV
# Sequence (A6NJW9 19-210 C51R/T71A, chain 2 of 2): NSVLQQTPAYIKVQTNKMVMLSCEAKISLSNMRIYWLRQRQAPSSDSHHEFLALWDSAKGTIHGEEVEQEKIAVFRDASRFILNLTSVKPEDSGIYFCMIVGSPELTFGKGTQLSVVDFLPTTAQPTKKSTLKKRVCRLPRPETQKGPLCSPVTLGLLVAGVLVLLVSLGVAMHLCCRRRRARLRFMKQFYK
# protocol_details: FACS
pEC50: −log10 of the molar value.
parameter: pEC50

- IAB22M γ3/γ1 EH6 (other) DVQITQSPSSLSASVGDRVTITCRTSRSISQYLAWYQQKPGKVPKLLIYSGSTLQSGVPSRFSGSGSGTDFTLTISSLQPEDVATYYCQQHNENPLTFGGGTKVEIKGSTSGGGSGGGSGGGGSSEVQLVESGGGLVQPGGSLRLSCAASGFNIKDTYIHFVRQAPGKGLEWIGRIDPANDNTLYASKFQGKATISADTSKNTAYLQMNSLRAEDTAVYYCGRGYGYYVFDHWGQGTLVTVSSELKTPLGDTTHTCVECPPCGGGSSGGGSGGQPREPQVYTLPPSRDELTKNQVSLTCLVKGFYPSDIAVEWESNGQPENNYKTTPPVLDSDGSFFLYSKLTVDKSRWQQGNVFSCSVMHEALHNHYTQKSLSLSPGK: 9.72
